Values from patent US20240270821A1

Reported EC50 is given for each of the following substances.
target: hGLP-1R (Homo sapiens, UniProt P43220); assay: Functional cAMP activation in the presence of 0.1% casein (no HSA); assay type: cell-based; details: 0.1% casein, no HSA; geometric mean; read-out: Relative cAMP EC50, hGLP-1R;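 note: intracellular cAMP rise after 30 min at 37 °C read by HTRF, normalized between buffer only (0%) and maximal control ligand (100%), four-parameter variable-slope fit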
Sequence (P43220 24-463): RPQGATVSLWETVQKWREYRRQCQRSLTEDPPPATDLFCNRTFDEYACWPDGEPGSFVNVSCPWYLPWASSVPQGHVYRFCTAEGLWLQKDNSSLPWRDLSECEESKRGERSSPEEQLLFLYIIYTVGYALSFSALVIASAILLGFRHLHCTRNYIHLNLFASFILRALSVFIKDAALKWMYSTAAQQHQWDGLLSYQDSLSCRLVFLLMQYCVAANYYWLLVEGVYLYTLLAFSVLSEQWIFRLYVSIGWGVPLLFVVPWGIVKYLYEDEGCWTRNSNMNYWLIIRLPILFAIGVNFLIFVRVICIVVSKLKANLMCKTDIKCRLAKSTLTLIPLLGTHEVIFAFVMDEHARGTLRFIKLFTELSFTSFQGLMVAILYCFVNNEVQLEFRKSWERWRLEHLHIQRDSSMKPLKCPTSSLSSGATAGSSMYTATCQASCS
Starred links: 1 amine or outer side, 2 acyl side, 3 side chain; linkers in the order of their positions; H or OH if unused. Non-standard residues stand in square brackets, D forms with d. Groups on a side chain read outwards from the residue. No end group written: not given here. *: point of attachment. C18 diacid = O=C(O)CCCCCCCCCCCCCCCCC(=O)*; αMePhe(2-F) = C[C@](N)(Cc1ccccc1F)C(=O)O; γGlu = O=C(O)[C@H](CCC(=O)[*:2])N[*:1]; αMe4Pal = C[C@](N)(Cc1ccncc1)C(=O)O; αMeY = C[C@](N)(Cc1ccc(O)cc1)C(=O)O; 4Pal = N[C@@H](Cc1ccncc1)C(=O)O; αMeL = CC(C)C[C@](C)(N)C(=O)O; αMeS = C[C@](N)(CO)C(=O)O; Orn = NCCC[C@H](N)C(=O)O; AEEA = NCCOCCOCC(=O)O; Aib = CC(C)(N)C(=O)O
// units = nM; emit number, no label

Some entries whose results are on file:
- substance: "H-Y[Aib]Q[dA]T[αMePhe(2-F)]TSD[4Pal][αMeS]I[αMeL]LD[Orn]K([AEEA-γGlu-C18 diacid])AQ[Aib]EFI[dE][αMeY]LIEGGPSSGAPPPSGGGE-NH2 [Example 1223]"
  target or test system: "hGLP-1R (Homo sapiens, UniProt P43220)"
  measured number: 0.337
- substance: "H-Y[Aib]QGT[αMePhe(2-F)]TSD[4Pal][αMeS]I[αMeL]LD[Orn]K([γGlu-γGlu-C18 diacid])AQ[αMe4Pal]EFI[dE][αMeY]LIEGGPSSGAPPPEGGGEE-NH2 [Example 1220]"
  target or test system: "hGLP-1R (Homo sapiens, UniProt P43220)"
  measured number: 0.674
- substance: "H-Y[Aib]QGT[αMePhe(2-F)]TSD[4Pal][αMeS]I[αMeL]LD[Orn]QAQ[αMe4Pal]EFI[dE][αMeY]LIEGGPSSGAPPPSGS-NH2 [Example 1232]"
  target or test system: "hGLP-1R (Homo sapiens, UniProt P43220)"
  measured number: 0.723
- substance: "H-Y[Aib]QGT[αMePhe(2-F)]TSD[4Pal][αMeS]I[αMeL]LD[Orn]K([AEEA-γGlu-C18 diacid])AQ[αMe4Pal]EFI[dE][αMeY]LIEGGPSSGAPPPSGGGEE-NH2 [Example 1214]"
  target or test system: "hGLP-1R (Homo sapiens, UniProt P43220)"
  measured number: 0.55
- substance: "H-Y[Aib]QGT[αMePhe(2-F)]TSD[4Pal][αMeS]I[αMeL]LD[Orn]K([γGlu-γGlu-C18 diacid])AQ[αMe4Pal]EFI[dE][αMeY]LIEGGPPS[Aib][Orn]PPP[Orn]SE-NH2 [Example 1228]"
  target or test system: "hGLP-1R (Homo sapiens, UniProt P43220)"
  measured number: 0.379
- substance: "H-Y[Aib]Q[dA]T[αMePhe(2-F)]TSD[4Pal][αMeS]I[αMeL]LD[Orn]K([AEEA-γGlu-C18 diacid])AQ[Aib]EFI[dE][αMeY]LVEGGPSSGAPPPSGS-NH2 [Example 1204]"
  target or test system: "hGLP-1R (Homo sapiens, UniProt P43220)"
  measured number: 0.338
- substance: "Y[Aib]QGT[αMePhe(2-F)]TSD[4Pal][αMeS]I[αMeL]LD[Orn]K([AEEA-γGlu-C18 diacid])AQ[αMe4Pal]EFI[dQ][αMeY]LIEGGPSSGAPPPSGS-NH2 [Example 1202]"
  target or test system: "hGLP-1R (Homo sapiens, UniProt P43220)"
  measured number: 0.237
- substance: "H-Y[Aib]Q[dA]T[αMePhe(2-F)]TSD[4Pal][αMeS]I[αMeL]LD[Orn]K([γGlu-γGlu-C18 diacid])AQ[Aib]EFI[dE][αMeY]LIEGGPSSGAPPPSGGGE-NH2 [Example 1225]"
  target or test system: "hGLP-1R (Homo sapiens, UniProt P43220)"
  measured number: 0.399

input: # EC50 lookup, item H-Y[Aib]QGT[αMePhe(2-F)]TSD[4Pal][αMeS]I[αMeL]LD[Orn]K([AEEA-γGlu-C18 diacid])AQ[αMe4Pal]EFI[dE][αMeY]LIEGGPPS[Aib][Orn]PPP[Orn]GGGE-NH2 [Example 1197]
output: 0.407

input: Please give the result for H-Y[Aib]QGT[αMePhe(2-F)]TSD[4Pal][αMeS]I[αMeL]LD[Orn]K([γGlu-γGlu-C18 diacid])AQ[αMe4Pal]EFI[dE][αMeY]LIEGGPPS[Aib][Orn]PPP[Orn]GE-NH2 [Example 1227] too.
output: 0.387

input: Please give the result for H-Y[Aib]QGT[αMePhe(2-F)]TSD[4Pal][αMeS]I[αMeL]LD[Orn][Orn]([AEEA-γGlu-C18 diacid])AQ[αMe4Pal]EFI[dE][αMeY]LIEGGPSSGAPPPSGS-NH2 [Example 1211] too.
output: 0.276

input: Please give the result for Y[Aib]QGT[αMePhe(2-F)]TSD[4Pal][αMeS]I[αMeL]LD[Orn][Orn]([AEEA-γGlu-C18 diacid])AQ[αMe4Pal]EFI[dE][αMeY]LVEGGPSSGAPPPSGS-NH2 [Example 1210] too.
output: 0.375

input: Please give the result for H-Y[Aib]QGT[αMePhe(2-F)]TSD[4Pal][αMeS]I[αMeL]LD[Orn]K([AEEA-γGlu-C18 diacid])AQ[αMe4Pal]EFI[dE][αMeY]LIEGGPPS[Aib][Orn]PPPEGE-NH2 [Example 1194] too.
output: 0.51

input: Please give the result for H-Y[Aib]QGT[αMePhe(2-F)]TSD[4Pal][αMeS]I[αMeL]LD[Orn]QAQ[αMe4Pal]EFI[dE][αMeY]LIEGGPSSGAPPPSGSE-NH2 [Example 1233] too.
output: 1.09

input: Please give the result for H-Y[Aib]Q[dA]T[αMePhe(2-F)]TSD[4Pal]SI[αMeL]LD[Orn]K([AEEA-γGlu-C18 diacid])AQ[αMe4Pal]EFI[dE][αMeY]LIEGGPSSGAPPPSGS-NH2 [Example 1206] too.
output: 0.352

input: Please give the result for H-Y[Aib]QGT[αMePhe(2-F)]TSD[4Pal][αMeS]I[αMeL]LD[Orn]K([AEEA-γGlu-C18 diacid])AQ[αMe4Pal]EFI[dE][αMeY]LIEGGPPS[Aib]EPPPSGSE-NH2 [Example 1200] too.
output: 0.727

input: Please give the result for H-Y[Aib]QGT[αMePhe(2-F)]TSD[4Pal][αMeS]I[αMeL]LD[Orn]K([AEEA-γGlu-C18 diacid])AQ[αMe4Pal]EFI[dE][αMeY]LIEGGPSSGAPPPSGGGEEE-NH2 [Example 1215] too.
output: 0.668

input: Please give the result for H-Y[Aib]QGT[αMePhe(2-F)]TSD[4Pal][αMeS]I[αMeL]LD[Orn]K([AEEA-AEEA-γGlu-C18 diacid])AQ[αMe4Pal]EFI[dE][αMeY]LIEGGPSSGEPPPSGS-NH2 [Example 1208] too.
output: 0.526

input: Please give the result for H-Y[Aib]QGT[αMePhe(2-F)]TSD[4Pal][αMeS]I[αMeL]LD[Orn]K([γGlu-γGlu-C18 diacid])AQ[αMe4Pal]EFI[dE][αMeY]LIEGGPSSGAPPPSGGGEE-NH2 [Example 1218] too.
output: 0.58

* * *

molecular target: hGLP-1R (Homo sapiens); experiment: Functional cAMP activation in the presence of 0.1% casein (no HSA); assay type: cell-based; settings: read-out: Relative cAMP EC50, hGLP-1R
Starred links: 1 amine or outer side, 2 acyl side, 3 side chain; linkers in the order of their positions; H or OH if unused. Non-standard residues stand in square brackets, D forms with d. Groups on a side chain read outwards from the residue. *: point of attachment. C18 diacid = O=C(O)CCCCCCCCCCCCCCCCC(=O)*; αMePhe(2-F) = C[C@](N)(Cc1ccccc1F)C(=O)O; γGlu = O=C(O)[C@H](CCC(=O)[*:2])N[*:1]; αMe4Pal = C[C@](N)(Cc1ccncc1)C(=O)O; αMeY = C[C@](N)(Cc1ccc(O)cc1)C(=O)O; 4Pal = N[C@@H](Cc1ccncc1)C(=O)O; αMeL = CC(C)C[C@](C)(N)C(=O)O; αMeS = C[C@](N)(CO)C(=O)O; Orn = NCCC[C@H](N)C(=O)O; AEEA = NCCOCCOCC(=O)O; Aib = CC(C)(N)C(=O)O
endpoint name: pEC50
Answer as the number alone; pEC50 is minus log10 of concentration in mol/L.

- substance: "H-Y[Aib]QGT[αMePhe(2-F)]TSD[4Pal]SILLDKK([AEEA-γGlu-C18 diacid])AQ[Aib]AFIE[αMeY]LEEGGPSSGAPPPSGTGE-NH2 [Example 669]"
  pEC50: 9.57
- substance: "H-Y[Aib]QGT[αMePhe(2-F)]TSD[4Pal][αMeS]I[αMeL]LD[Orn]K([γGlu-γGlu-C18 diacid])AQ[αMe4Pal]EFI[dE][αMeY]LVEGGPSSGEPPPSGS-NH2 [Example 737]"
  pEC50: 9.55
- substance: "H-Y[Aib]QGT[αMePhe(2-F)]TSD[4Pal]SI[αMeL]LD[Orn]K([AEEA-γGlu-C18 diacid])AQ[αMe4Pal][Orn]FI[dE][αMeY]LIEGGPSSGAPPPESE-NH2 [Example 755]"
  pEC50: 9.76
- substance: "H-Y[Aib]QGT[αMePhe(2-F)]TSD[4Pal][αMeS]I[αMeL]LD[Orn]K([AEEA-γGlu-C18 diacid])AQ[Aib]NFIEYLIEGGPSSGEPPPEEG-NH2 [Example 482]"
  pEC50: 9.75

Switching to the query record.
input: # pEC50 lookup, item H-Y[Aib]QGT[αMePhe(2-F)]TSD[4Pal]SI[αMeL]LDKK([γGlu-γGlu-C18 diacid])AQ[Aib]AFIEYLEEGGPSSGEPPPSGEGE-NH2 [Example 625]
output: 8.94
